B1: TRIM63 (parent)
chain: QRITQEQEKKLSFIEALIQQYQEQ

- Variants of: B1
- test summary: protein stability index of a GFP-peptide fusion (GPS, HEK-293T) (PSI 1-6); higher = more stable;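 note: lentivirally expressed fusions sorted by FACS into six bins by GFP to DsRed ratio, PSI derived from sequencing read proportions per bin multiplied by bin number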
- measurement context: c terminus: a fixed tail appended
Assign classes using reported protein stability index values and the ranges L = under 2, M = from 2 up to 3, H = 3 and over, please.

1) L17F : M
2) E15Y : M
3) Q24Y : L
4) Q1M : M
5) A16L : L
6) F13C : H
7) E23H : M
8) Q20M : M
9) T4E : H
10) Q24N : M
11) L11E : H
12) Y21P : H
13) Q7P : M
14) Q24H : M
15) E15H : M
16) I14M : M
17) L17Q : H
18) Q24T : M
19) Q19E : M
20) Q5R : M
21) S12Y : L
22) Y21S : H
23) Q5K : M
24) Q7W : H
25) R2I : L
26) E8M : L
27) I3C : M
28) Q24M : M
29) Y21H : M
30) I14R : H
31) A16W : M
32) R2A : M
33) K10S : M
34) E6C : L
35) Q5D : M
36) I14N : H
37) I3L : M
38) K9V : M
39) K10L : L
40) I3P : M
41) T4I : M
42) L11C : M
43) K10Y : L
44) R2M : M

Source of measurements: the supplement of paper PMC10567573
